# target: Protein Kinase C ("PKC")
# test-protocol: Protein Kinase C (PKC) in vitro inhibition (histone III-S phosphorylation)
# Type: biochemical
# setup-conditions: partially purified rat brain PKC, 5 μM ATP, 23° C., 15 minutes; read-out: IN VITRO INHIBITION OF PKC IC50 (nanomolar) except where otherwise indicated
pIC50: −log10 of the molar value.
Listed next: entries and their corresponding pIC50.
measured-attribute: pIC50

compound	measured-attribute	value-reported
CN1Cn2c3ccccc3c3c4c(c5c6ccccc6n(c5c32)C1)C(=O)NC4	pIC50	7.05
O=C1NC(=O)c2c1c1c3ccccc3n3c1c1c2c2ccccc2n1COC3	pIC50	7.96
O=C1NC(=O)c2c1c1c3ccccc3n3c1c1c2c2ccccc2n1C[S+]([O-])C3	pIC50	7.72
C[C@@H]1n2c3ccccc3c3c4c(c5c6ccccc6n(c5c32)[C@@H](C)S1(=O)=O)C(=O)NC4=O (relative stereo) [trans-25]	pIC50	6.92
O=C1NC(=O)c2c1c1c3ccccc3n3c1c1c2c2ccccc2n1CNC3	pIC50	6.84
CN1Cn2c3ccccc3c3c4c(c5c6ccccc6n(c5c32)C1)C(=O)NC4=N	pIC50	6.82
CN(C)CCN1Cn2c3ccccc3c3c4c(c5c6ccccc6n(c5c32)C1)C(=O)NC4=O	pIC50	6.92
CN(C)CCN1Cn2c3ccccc3c3c4c(c5c6ccccc6n(c5c32)C1)C(=O)NC4=N	pIC50	6.80
O=C1NC(=O)c2c1c1c3ccccc3n3c1c1c2c2ccccc2n1CN(CCO)C3	pIC50	7.77
O=C(O)CN1Cn2c3ccccc3c3c4c(c5c6ccccc6n(c5c32)C1)C(=O)NC4=O	pIC50	6.32
N=C1NC(=O)c2c1c1c3ccccc3n3c1c1c2c2ccccc2n1CSC3	pIC50	7.62

---

# target: Protein Kinase C ("PKC")
# test-protocol: Protein Kinase C (PKC) in vitro inhibition (histone III-S phosphorylation)
# Format: biochemical
# setup-conditions: partially purified rat brain PKC, 5 μM ATP, 23° C., 15 minutes; read-out: IN VITRO INHIBITION OF PKC IC50 (nanomolar) except where otherwise indicated

compound	IC50 [nM]
O=C1NCc2c1c1c3ccccc3n3c1c1c2c2ccccc2n1CS(=O)(=O)C3	5
O=C1NC(=O)c2c1c1c3ccccc3n3c1c1c2c2ccccc2n1CN(O)C3	90
C[C@@H]1n2c3ccccc3c3c4c(c5c6ccccc6n(c5c32)[C@H](C)S1(=O)=O)C(=O)NC4=O [cis-25]	2.4
N=C1NC(=O)c2c1c1c3ccccc3n3c1c1c2c2ccccc2n1COC3	62
O=C1NCc2c1c1c3ccccc3n3c1c1c2c2ccccc2n1CSC3	7
CN1Cn2c3ccccc3c3c4c(c5c6ccccc6n(c5c32)C1)C(=O)NC4=O	86
O=C1NC(=O)c2c1c1c3ccccc3n3c1c1c2c2ccccc2n1CS(=O)(=O)C3	2
O=C1NC(=O)c2c1c1c3ccccc3n3c1c1c2c2ccccc2n1CSC3	14

---

# System: Superoxide generation in human neutrophils
# test-protocol: Neutrophil test: inhibition of superoxide generation in human neutrophils
# Format: cell-based
# setup-conditions: 0.25 h, SO release induced by fMLP (100 nM) or PMA (100 nM), stimulus not stated, 15 minutes at 37° C.
# Procedure: Inhibition of Superoxide Generation in Human Neutrophils One of the histological changes which occurs in psoriasis is infiltration of neutrophils into epidermis and dermis. […] Neutrophils were prepared from human peripheral blood. SO release was induced by fMLP (100 nM) or PMA (100 nM) and measured as SO dismutase-inhibitable reduction of cytochrome c. […] The quantity of SO anion release was determined as the difference between the absorbance at 550 nm in the presence and absence of SO dismutase. […]
measured-attribute: IC50 (nM)

compound	value-relation-sign	value-reported
O=C1NC(=O)c2c1c1c3ccccc3n3c1c1c2c2ccccc2n1CS(=O)(=O)C3 [Compound 26]	=	1600
O=C1NC(=O)c2c1c1c3ccccc3n3c1c1c2c2ccccc2n1C[S+]([O-])C3 [Compound 20]	>	10000
O=C1NC(=O)c2c1c1c3ccccc3n3c1c1c2c2ccccc2n1CSC3 [Compound 18]	>	10000
N=C1NC(=O)c2c1c1c3ccccc3n3c1c1c2c2ccccc2n1CSC3 [Compound 17]	>	10000
O=C1NCc2c1c1c3ccccc3n3c1c1c2c2ccccc2n1CS(=O)(=O)C3 [Compound 23]	=	900
